Known inhibition at 1 µM of a selection of compounds
target: histamine (H1) receptor (Cavia porcellus, UniProt P31389); construct: isolated smooth muscle of the guinea-pig ileum; from tissue; host or cells: isolated ileum segments of Dunkin Hartley guinea-pigs; assay: Antihistamine (H1) effect: inhibition of histamine-induced contractions of isolated guinea-pig ileum in vitro; format: cell-based, guinea-pig (Dunkin Hartley); conditions: histamine 5 × 10^-6 mol/l, test substance 10^-6 mol/l, after 30 sec.; read-out: in vitro (H1) receptor antagonism % inhibitory effect on histamine-induced contractions of the Ileum, after 30 sec.
Sequence (P31389 whole entry): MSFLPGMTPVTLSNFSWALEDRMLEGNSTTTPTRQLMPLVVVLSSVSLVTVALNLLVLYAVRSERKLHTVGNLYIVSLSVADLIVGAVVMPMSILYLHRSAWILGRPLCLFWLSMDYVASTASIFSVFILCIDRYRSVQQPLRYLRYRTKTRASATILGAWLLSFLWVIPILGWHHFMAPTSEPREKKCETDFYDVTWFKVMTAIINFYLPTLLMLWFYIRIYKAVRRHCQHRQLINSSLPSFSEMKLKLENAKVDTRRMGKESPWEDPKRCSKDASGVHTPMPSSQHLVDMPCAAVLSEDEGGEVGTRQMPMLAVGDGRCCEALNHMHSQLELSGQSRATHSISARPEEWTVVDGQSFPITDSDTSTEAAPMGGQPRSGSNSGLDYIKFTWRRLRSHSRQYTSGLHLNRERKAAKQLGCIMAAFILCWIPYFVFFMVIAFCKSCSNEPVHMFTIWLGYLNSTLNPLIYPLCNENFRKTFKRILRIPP
Please state the figure in %; there is no need to write the unit.

Use the examples below as a reference point.
>  <SMILES_STRING>
Cc1ccnc(N2CCN(CCc3c(C)n4c5c(ccc(Cl)c35)OCC4)CC2)c1

>  <READOUT_TYPE>
inhibition at 1 µM

>  <ENDPOINT_RESULT>
25

$$$$
>  <SMILES_STRING>
Cc1ccnc(N2CCN(CCc3c(C)n4c5c(cc(C(=O)C(C)C)cc35)CCC4)CC2)c1

>  <READOUT_TYPE>
inhibition at 1 µM

>  <ENDPOINT_RESULT>
33

$$$$
>  <SMILES_STRING>
Cc1ccnc(N2CCN(CCc3c(C)n4c5c(cc(C)cc35)CCC4)CC2)c1

>  <READOUT_TYPE>
inhibition at 1 µM

>  <ENDPOINT_RESULT>
8

$$$$
>  <SMILES_STRING>
Cc1ccnc(N2CCN(CCc3c(C)n4c5c(cccc35)SCC4)CC2)c1

>  <READOUT_TYPE>
inhibition at 1 µM

>  <ENDPOINT_RESULT>
21

$$$$

Okay, next one:
IN: Dear colleague, I am looking for the recorded inhibition at 1 µM of the following compound: `CCc1c(CCN2CCN(c3cc(C)ccn3)CC2)c2cccc3c2n1CCC3`
OUT: 29

====

Known inhibition at 10 µM of a selection of compounds
Molecular target: 5-lipoxygenase (Mus musculus, UniProt P48999)
Construct: A cell suspension containing peritoneal cells of male mice 8-10 weeks old was obtained; endogenous in cells; host or cells: mouse peritoneal macrophages (male mice 8-10 weeks old), zymosan-stimulated
Assay: 5-lipoxygenase inhibition: release of LTC4 from zymosan-stimulated mouse peritoneal macrophage cells
Format: cell-based
Settings: 10^-5 mol/l, read-out: In vitro % inhibition effect on the release of LTC4
From the text: 5. In vitro determination of cyclooxygenase inhibition and 5-lipoxygenase inhibition. After activation of the cell, arachidonic acid contained in cell membranes is metabolized in two ways. Leukotrienes, inter alia leukotriene C4, are formed under the action of the enzyme 5-lipoxygenase (5-LO), and prostanoids are formed under the action of the enzyme cyclooxygenase (CO). In in vitro systems, the metabolites are secreted from the cell. […]

Use the examples below as a reference point.
>  <COMPOUND>
COc1ccc(C2CCc3cc(OC)cc4c(CCN5CCN(c6cc(C)ccn6)CC5)c(C)n2c34)cc1 (centres unmarked)

>  <inhibition at 10 µM>
89%

$$$$
>  <COMPOUND>
Cc1ccnc(N2CCN(CC(O)c3c(C4CCCCC4)n4c5c(cccc35)CCC4)CC2)c1 (centres unmarked)

>  <inhibition at 10 µM>
62%

$$$$
>  <COMPOUND>
COc1ccc(-c2c(CCN3CCN(c4cc(C)ccn4)CC3)c3cccc4c3n2CCC4)cc1

>  <inhibition at 10 µM>
56%

$$$$
>  <COMPOUND>
Cc1ccnc(N2CCN(CCc3c(C)n4c5c(c(Cl)cc(Cl)c35)OCC4)CC2)c1

>  <inhibition at 10 µM>
71%

$$$$
>  <COMPOUND>
CCCCC1CCc2cccc3c(CCN4CCN(c5cc(C)ccn5)CC4)c(C)n1c23 (centres unmarked)

>  <inhibition at 10 µM>
90%

$$$$
>  <COMPOUND>
Cc1ccnc(N2CCN(CCc3c(C)n4c5c(ccc(Cl)c35)OCC4)CC2)c1

>  <inhibition at 10 µM>
75%

$$$$
>  <COMPOUND>
C=CCCC1CCc2cccc3c(CCN4CCN(c5cc(C)ccn5)CC4)c(C)n1c23 (centres unmarked)

>  <inhibition at 10 µM>
94%

$$$$

Okay, next one:
IN: Dear colleague, I am looking for the recorded inhibition at 10 µM of the following compound: `Cc1ccnc(N2CCN(CCc3c(-c4ccc(O)cc4)n4c5c(cccc35)CCC4)CC2)c1`
OUT: 99%

====

Molecular target: 5-lipoxygenase (Mus musculus, UniProt P48999)
Construct: A cell suspension containing peritoneal cells of male mice 8-10 weeks old was obtained; endogenous in cells; host or cells: mouse peritoneal macrophages (male mice 8-10 weeks old), zymosan-stimulated
Sequence (P48999 1-674): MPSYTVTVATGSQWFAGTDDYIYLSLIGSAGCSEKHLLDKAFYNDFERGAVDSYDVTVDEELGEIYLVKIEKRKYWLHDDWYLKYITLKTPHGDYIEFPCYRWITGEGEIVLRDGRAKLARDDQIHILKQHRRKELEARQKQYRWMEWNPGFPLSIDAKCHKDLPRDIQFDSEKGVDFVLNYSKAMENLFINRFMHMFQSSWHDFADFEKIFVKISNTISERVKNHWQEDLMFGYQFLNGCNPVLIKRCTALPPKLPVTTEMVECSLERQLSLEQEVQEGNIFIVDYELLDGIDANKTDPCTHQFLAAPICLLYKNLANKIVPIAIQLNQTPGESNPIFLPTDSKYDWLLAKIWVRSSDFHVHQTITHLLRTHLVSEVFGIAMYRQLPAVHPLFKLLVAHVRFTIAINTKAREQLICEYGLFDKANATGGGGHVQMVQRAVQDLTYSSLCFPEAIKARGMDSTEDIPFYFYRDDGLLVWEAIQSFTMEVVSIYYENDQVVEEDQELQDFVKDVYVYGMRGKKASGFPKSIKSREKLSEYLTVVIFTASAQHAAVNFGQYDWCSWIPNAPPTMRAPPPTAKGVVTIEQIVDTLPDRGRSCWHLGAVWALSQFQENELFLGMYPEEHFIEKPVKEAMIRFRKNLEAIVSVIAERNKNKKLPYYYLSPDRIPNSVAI
Experiment: 5-lipoxygenase inhibition: release of LTC4 from zymosan-stimulated mouse peritoneal macrophage cells
Assay type: cell-based
Settings: 10^-5 mol/l, read-out: In vitro % inhibition effect on the release of LTC4
READOUT_TYPE: inhibition at 10 µM (%)
Please state the figure in %; there is no need to write the unit.

Use the examples below as a reference point.
>  <COMPOUND>
Cc1ccnc(N2CCN(CCc3c(C)n4c5c(cccc35)CC4C)CC2)c1 (centres unmarked)

>  <READOUT_UNIT>
%

>  <ENDPOINT_RESULT>
4

$$$$
>  <COMPOUND>
Cc1ccnc(N2CCN(CCc3c(C)n4c5c(cc(NC(=O)c6ccccc6)cc35)CCC4)CC2)c1

>  <READOUT_UNIT>
%

>  <ENDPOINT_RESULT>
69

$$$$
>  <COMPOUND>
Cc1ccnc(N2CCN(CCc3c(C)n4c5c(ccc(C(O)C(C)C)c35)SCC4)CC2)c1 (centres unmarked)

>  <READOUT_UNIT>
%

>  <ENDPOINT_RESULT>
66

$$$$

Okay, next one:
IN: Dear colleague, I am looking for the recorded inhibition at 10 µM of the following compound: Cc1ccnc(N2CCN(CCc3c(C)n4c5c(cc(C(O)C(C)C)cc35)CCC4)CC2)c1 (centres unmarked)
OUT: 55

====

molecular target: cyclooxygenase (Mus musculus, UniProt P22437); construct: A cell suspension containing peritoneal cells of male mice 8-10 weeks old was obtained; endogenous in cells; host or cells: mouse peritoneal macrophages (male mice 8-10 weeks old), zymosan-stimulated; test: Cyclooxygenase inhibition: release of 6-keto-PGF1 α from zymosan-stimulated mouse peritoneal macrophage cells; type: cell-based; conditions: 10^-5 mol/l, read-out: In vitro % inhibition effect on the release of 6-keto-PGF1 α
Sequence (P22437 27-602): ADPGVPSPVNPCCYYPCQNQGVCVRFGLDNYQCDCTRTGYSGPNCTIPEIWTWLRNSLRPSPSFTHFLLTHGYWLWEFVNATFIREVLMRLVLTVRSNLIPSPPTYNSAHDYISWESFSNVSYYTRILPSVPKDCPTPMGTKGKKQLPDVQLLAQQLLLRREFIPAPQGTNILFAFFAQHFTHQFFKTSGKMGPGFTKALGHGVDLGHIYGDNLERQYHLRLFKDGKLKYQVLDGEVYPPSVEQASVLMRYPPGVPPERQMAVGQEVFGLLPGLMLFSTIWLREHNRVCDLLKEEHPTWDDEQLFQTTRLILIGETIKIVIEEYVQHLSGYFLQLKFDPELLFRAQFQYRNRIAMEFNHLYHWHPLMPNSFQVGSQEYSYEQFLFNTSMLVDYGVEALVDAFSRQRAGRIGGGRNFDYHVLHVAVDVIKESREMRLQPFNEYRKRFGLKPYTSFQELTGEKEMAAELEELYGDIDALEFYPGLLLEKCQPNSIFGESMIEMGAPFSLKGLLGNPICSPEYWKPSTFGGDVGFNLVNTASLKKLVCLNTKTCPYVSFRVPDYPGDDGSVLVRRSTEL
Kindly return condition met if reported inhibition at 10 µM is no lower than 40%; return condition not met if it is lower.

Field: example entries. Status: answers known.
>  <COMPOUND>
COc1ccc(C2CCc3cccc4c(CCN5CCN(c6cc(C)ccn6)CC5)c(C)n2c34)cc1 (centres unmarked)

>  <TGT>
cyclooxygenase (Mus musculus, UniProt P22437)

>  <CATEGORY>
condition met

$$$$
>  <COMPOUND>
Cc1ccnc(N2CCN(CCc3c(C)n4c5c(cc(C(=O)C6CCCCC6)cc35)CCC4)CC2)c1

>  <TGT>
cyclooxygenase (Mus musculus, UniProt P22437)

>  <CATEGORY>
condition not met

$$$$
>  <COMPOUND>
Cc1ccnc(N2CCN(CCc3c(C)n4c5c(cc(CC6CCCCC6)cc35)CCC4)CC2)c1

>  <TGT>
cyclooxygenase (Mus musculus, UniProt P22437)

>  <CATEGORY>
condition met

$$$$
>  <COMPOUND>
Cc1ccc(N2CCN(CCc3c(C)n4c5c(cccc35)CCC4)CC2)nc1

>  <TGT>
cyclooxygenase (Mus musculus, UniProt P22437)

>  <CATEGORY>
condition met

$$$$
>  <COMPOUND>
Cc1ccnc(N2CCN(CCc3c(C)n4c5c(cc(N(C)C)cc35)CCC4)CC2)c1

>  <TGT>
cyclooxygenase (Mus musculus, UniProt P22437)

>  <CATEGORY>
condition not met

$$$$

IN: # bool: inhibition at 10 µM of Cc1ccnc(N2CCN(CC(O)c3c(C4CCCCC4)n4c5c(cccc35)CCC4)CC2)c1 (centres unmarked) >= 40%
OUT: condition met

IN: # bool: inhibition at 10 µM of Cc1ccnc(N2CCN(CCc3c(C)n4c5c(ccc(C(O)C(C)C)c35)SCC4)CC2)c1 (centres unmarked) >= 40%
OUT: condition met

IN: # bool: inhibition at 10 µM of `COc1ccc(-c2c(CCN3CCN(c4cc(C)ccn4)CC3)c3cccc4c3n2CCC4)cc1` >= 40%
OUT: condition met
